study system: Free fatty acid receptor 1 (Homo sapiens, UniProt O14842)
Sequence (O14842 whole entry): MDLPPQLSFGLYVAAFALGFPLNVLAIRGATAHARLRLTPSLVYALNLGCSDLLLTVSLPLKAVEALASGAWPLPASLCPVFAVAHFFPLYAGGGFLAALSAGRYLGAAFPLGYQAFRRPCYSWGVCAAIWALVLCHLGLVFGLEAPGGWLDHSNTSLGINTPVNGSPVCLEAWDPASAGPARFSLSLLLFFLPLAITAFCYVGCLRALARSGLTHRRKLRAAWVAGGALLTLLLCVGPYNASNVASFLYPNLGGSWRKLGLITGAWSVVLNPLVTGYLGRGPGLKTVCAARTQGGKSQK
assay text: Agonist activity at human […] receptor expressed in CHO cells assessed as increase in intracellular calcium concentration after 90 secs by FLIPR assay in presence of 0.1% BSA
readout: log10 EC50 (log10 of the value in µM)
Units before log transform: µM; reported quantity: EC50; transform: log10.

Worked examples follow.
{"molecule": "CCOCCOc1cc(C)c(-c2cccc(COc3ccc4c(c3)COC4CC(=O)O)c2)c(C)c1 (configuration not stated)", "log10 EC50": -1.04}
{"molecule": "Cc1cccc(C)c1-c1cccc(COc2ccc3c(c2)OCCC(C(=O)O)C3)c1 (configuration not stated)", "log10 EC50": -1.15}

Batch lookup, log10 EC50 per entry.
1. O=C(O)CC1COc2cc(OCc3cccc(-c4ccc5sccc5c4)c3)ccc21 (configuration not stated)
2. CCOCCOc1cc(C)c(-c2cccc(COc3ccc4c(c3)CC(C(=O)O)C4)c2)c(C)c1 (configuration not stated)
3. Cc1cccc(C)c1-c1cccc(COc2ccc3c(c2)CCCC3CC(=O)O)c1 (configuration not stated)
4. Cc1cccc(C)c1-c1cccc(COc2ccc3c(c2)CCC3CC(=O)O)c1 (configuration not stated)
5. Cc1cc(C)c(-c2cccc(COc3ccc4c(c3)OCC4CC(=O)O)c2)c(C)c1 (configuration not stated)
6. COc1ccc(COc2ccc3c(c2)OCC3CC(=O)O)cc1-c1c(C)cccc1C (configuration not stated)
7. O=C(O)CC1COc2cc(OCc3cccc(-c4csc5ccccc45)c3)ccc21 (configuration not stated)

result:
1: -0.74; 2: -0.02; 3: -1.57; 4: -1.48; 5: -1.48; 6: -1.62; 7: -1.41
